Data provenance is ChEMBL document CHEMBL1201862.

# Tested on: SW-620
# PROTOCOL_DESCRIPTION: NCI tumour cell line growth inhibition, 48 h
Active and inactive are the calls of the source. Rule as the data show it: active = GI50 up to about 1.1 µM and inactive = higher.
// GI50 lookup, one value per entry
READOUT: GI50

- COMPOUND: "CCOc1ccc2nc(NC(=O)C(=O)C3C(=O)C(CC4C(=O)c5ccccc5C4=O)C(=O)CC3(C)C)sc2c1 (centres undefined)"
  READOUT: "GI50"
  MEASUREMENT: "> 100 µM (inactive)"
- COMPOUND: "CC(c1ccccc1)n1cncc1C(=O)NN1CCN(C)CC1 (centres undefined)"
  READOUT: "GI50"
  MEASUREMENT: "> 10 µM (inactive)"
- COMPOUND: "CN1CCC23c4c5ccc(O)c4OC2C(=NN=C2CCC4(O)C6Cc7ccc(O)c8c7C4(CCN6C)C2O8)CCC3(O)C1C5 (centres undefined)"
  READOUT: "GI50"
  MEASUREMENT: "> 100 µM (inactive)"
- COMPOUND: "CC(=O)Nc1cc([As](=O)(O)O)ccc1O"
  READOUT: "GI50"
  MEASUREMENT: "> 100 µM (inactive)"
- COMPOUND: "CCc1ccc(NC(=O)NC(=O)c2ccccc2[N+](=O)[O-])cc1Oc1ncc(Cl)cn1"
  READOUT: "GI50"
  MEASUREMENT: "0.0168 µM (active)"
- COMPOUND: "CC(=O)O[C@H]1C(N(C)C(=O)c2ccccc2)CC[C@]2(C)C3CC[C@@]4(C)C(CC(O)[C@@H]4C(C)N(C)C)[C@@H]3CCC12 (some centres undefined)"
  READOUT: "GI50"
  MEASUREMENT: "> 100 µM (inactive)"
- COMPOUND: "CCOC(=O)c1ccc(NC(=O)Oc2ccc3c(C)cc(=O)oc3c2)cc1"
  READOUT: "GI50"
  MEASUREMENT: "36.2 µM (inactive)"
- COMPOUND: "CNc1ncnc2c1cnn2CCCCO"
  READOUT: "GI50"
  MEASUREMENT: "> 100 µM (inactive)"
- COMPOUND: "C=C1C(O)C23CCC4C(C(=O)O)(C(=O)O)CC(OC5OC(CO)C(O)C(OC(=O)CCc6ccccc6)C5NC(=O)CC(C)C)CC4(C)C2CCC1(O)C3 (centres undefined)"
  READOUT: "GI50"
  MEASUREMENT: "> 100 µM (inactive)"

---

# Tested on: COLO 205
# PROTOCOL_DESCRIPTION: NCI tumour cell line growth inhibition, 48 h
Active and inactive are the calls of the source. Rule as the data show it: active = GI50 up to about 1.1 µM and inactive = higher.
READOUT: GI50

- COMPOUND: "c1ccc2c3nnc(c2c1)SCCSCCCSCCS3"
  READOUT: "GI50"
  MEASUREMENT: "> 100 µM (inactive)"
- COMPOUND: "CC1(O)CC23CC1CCC2(C)C12CCCC(C)(C(=O)O1)C2CC3O (stereo not given)"
  READOUT: "GI50"
  MEASUREMENT: "> 100 µM (inactive)"
- COMPOUND: "Oc1ccc2cc(Br)ccc2c1-c1c(O)ccc2ccc(Br)cc12"
  READOUT: "GI50"
  MEASUREMENT: "13.6 µM (inactive)"
- COMPOUND: "COc1cccc(/C=C2\\N=C(Cl)OC2=O)c1O"
  READOUT: "GI50"
  MEASUREMENT: "> 100 µM (inactive)"
- COMPOUND: "C[C@@H]1CCC2[C@@H](C)[C@@H](O[C@H]3O[C@@H]4O[C@@]5(C)CCC6[C@H](C)CCC([C@H]3C)[C@]64OO5)O[C@@H]3O[C@@]4(C)CCC1[C@@]23OO4 (stereo not given in full)"
  READOUT: "GI50"
  MEASUREMENT: "1.17 µM (inactive)"
- COMPOUND: "NNC(=O)CCc1ccc2ccc3ccccc3c2c1"
  READOUT: "GI50"
  MEASUREMENT: "> 100 µM (inactive)"
- COMPOUND: "Oc1ccc(/C=N/NC(=S)Nc2cccnc2)nc1"
  READOUT: "GI50"
  MEASUREMENT: "3.98 µM (inactive)"
- COMPOUND: "COc1ccc(OC)c(SC(CC(=O)c2ccccc2)c2ccccc2)c1 (stereo not given)"
  READOUT: "GI50"
  MEASUREMENT: "19.5 µM (inactive)"
- COMPOUND: "O=C(O/N=C1/CCC/C1=C\\c1ccccc1)c1ccc(Cl)c(Cl)c1"
  READOUT: "GI50"
  MEASUREMENT: "> 100 µM (inactive)"
- COMPOUND: "COc1ccc(OC)c(NC(=O)CCC/C(CC(=O)c2ccc(O)c(OC)c2)=N\\NC(=O)C[N+](C)(C)C)c1"
  READOUT: "GI50"
  MEASUREMENT: "> 100 µM (inactive)"
